# Test system: UGT2B
# experiment.description: p-nitrophenol glucuronidation activity in possum liver microsomes
# Type: biochemical, possum (Trichosurus vulpecula)
# applied.conditions: compound at estimated 2-fold IC50
Exercise: state measured UGT2B4 catalytic activity at 2-fold IC50 for each of the compounds provided.
Enter your answer as a number in µmol/mg/min; do not include the unit.

State its UGT2B4 catalytic activity at 2-fold IC50 for this compound: CC(C)=CCC[C@](C)(O[C@@H]1O[C@H](CO)[C@@H](O)[C@H](O)[C@H]1O)[C@H]1CC[C@]2(C)[C@@H]1[C@H](O)C[C@@H]1[C@@]3(C)CC[C@H](O)C(C)(C)[C@@H]3[C@@H](O)C[C@]12C [Ginsenoside F1]
4.14

Give UGT2B4 catalytic activity at 2-fold IC50 for O=C(/C=C/C=C/c1ccc2c(c1)OCO2)N1CCCCC1
4.29

Give reported UGT2B4 catalytic activity at 2-fold IC50 value for CCC(C)n1ncn(-c2ccc(N3CCN(c4ccc(OCC5COC(Cn6cncn6)(c6ccc(Cl)cc6Cl)O5)cc4)CC3)cc2)c1=O (stereo not shown)
3.06

Please look at this compound and report its UGT2B4 catalytic activity at 2-fold IC50: CC[C@H]1OC(=O)[C@H](C)[C@@H](O[C@H]2C[C@@](C)(OC)[C@@H](O)[C@H](C)O2)[C@H](C)[C@@H](O[C@@H]2O[C@H](C)C[C@H](N(C)C)[C@H]2O)[C@](C)(OC)C[C@@H](C)C(=O)[C@H](C)[C@@H](O)[C@]1(C)O
3.51

Tell me measured UGT2B4 catalytic activity at 2-fold IC50 for COc1cc(C2Oc3ccc([C@H]4Oc5cc(O)cc(O)c5C(=O)[C@@H]4O)cc3OC2CO)ccc1O (stereo partly shown) please.
2.21

Please report UGT2B4 catalytic activity at 2-fold IC50 for the following compound: C[C@@H]1CC[C@H]2C(C)(C)[C@H]3C[C@@]12CC[C@@]3(C)O
3.78

Identify the reported UGT2B4 catalytic activity at 2-fold IC50 for the following entry. O=c1cc(-c2ccccc2)oc2cc(O)ccc12 [7-Hydroxyflavone]
3.92

Identify the reported UGT2B4 catalytic activity at 2-fold IC50 for the following entry. CC(=O)O[C@H](CC=C(C)C)C1=CC(=O)c2c(O)ccc(O)c2C1=O
3.70

Provide UGT2B4 catalytic activity at 2-fold IC50 value for the following compound: Nc1ccc(S(=O)(=O)Nc2ccnn2-c2ccccc2)cc1
3.59

Determine its reported UGT2B4 catalytic activity at 2-fold IC50: O=c1cc(-c2ccccc2)oc2cc(O)c(O)c(O)c12
3.91

###

# Tested on: CYP3A
# experiment.description: CYP3A catalytic activity (erythromycin N-demethylation) in possum liver microsomes
# applied.conditions: possum; compound at estimated 2-fold IC50 (5 µM where none reported)
Provide the reported % of control (catalytic activity at 2-fold IC50) of each item.

Look up % of control (catalytic activity at 2-fold IC50) of COc1ccc(/C=C/c2cc(O)cc(O)c2)cc1O and report it.
124 % of control

Hello, please tell me recorded % of control (catalytic activity at 2-fold IC50) for this one: C/C1=C/CC[C@H](C)C(=O)C[C@@H](C(C)C)C(=O)C1
99 % of control

Given C=C[C@@H]1C2=CCOC(=O)C2=CO[C@H]1O[C@@H]1O[C@H](CO)[C@@H](O)[C@H](O)[C@H]1O [Gentiopicroside] , respond with its % of control (catalytic activity at 2-fold IC50).
82 % of control

State its % of control (catalytic activity at 2-fold IC50) for this molecule: Nc1ccc(S(=O)(=O)Nc2ccnn2-c2ccccc2)cc1
111 % of control

Supply reported % of control (catalytic activity at 2-fold IC50) belonging to this molecule: CC(=O)c1ccccc1O [2'-Hydroxyacetophenone]
102 % of control
